- Test system: THP-1
- PROTOCOL: cells
- Format: cell-based
- SETUP_CONDITIONS: THP-1, maximum inhibitory effect over concentration range
# reported MI%; entries follow
MEASUREMENT_NAME: MI% (%)

[[record]]
compound = "CC(=O)O[C@H]1C(=O)[C@@]2(C)[C@H]([C@H](OC(=O)c3ccccc3)[C@]3(O)C[C@H](OC(=O)[C@H](O)[C@@H](NC(=O)c4ccccc4)c4ccccc4)C(C)=C1C3(C)C)[C@]1(OC(C)=O)CO[C@@H]1C[C@@H]2O [PTX, paclitaxel, reference compound]"
measurement_name = "MI%"
readout_unit = "%"
endpoint_value = 72

[[record]]
compound = "CCOC(=O)CCc1ccccc1OP(=O)(N[C@@H](C)C(=O)OCc1ccccc1)OC[C@@H]1C[C@@H](O)[C@H](n2cnc3c(N)ncnc32)O1 (stereo partly drawn)"
measurement_name = "MI%"
readout_unit = "%"
endpoint_value = 100

